Where these numbers come from: the RNAGym collection of RNA variant scans (doi:10.1038/s41586-018-0170-7)

B1: tRNA (parent)
chain: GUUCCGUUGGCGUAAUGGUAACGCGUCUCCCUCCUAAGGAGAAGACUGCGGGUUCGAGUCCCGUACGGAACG

# Variants of: B1
# PROCEDURE_DETAILS: yeast fitness, log relative to wild type (ln ratio); higher = fitter; tRNA-Arg(CCU), competitive growth, 37 C, 1 M NaCl
Using yeast fitness (ln) as the sorting value, the categories are bottom end: < -0.3; midrange: ≥ -0.3 and < -0.1; top end: ≥ -0.1

Before answering, review these 3 worked examples.
VARIANT_KEY	QUALITATIVE_LABEL
U2G G6A C27U C46U C66U A69G A70G	midrange
G6U C27U C46U C66A A69G C71U	bottom end
U2G G6A A43C C46U C66U A69G A70G C71U	midrange

# input Field: class (yeast fitness (ln)) — entry: G6A C46U C66U A70G
# output top end

# input Hi, small favor: classify G1A G6U A70U by its yeast fitness (ln) when you get a moment.
# output midrange

# input Could you tell me which band G1A U2C G6U A70U belongs to?
# output top end

# input State the class of the variant shown: G6U C46U C66U C71U
# output midrange

# input // return the class label for G1A A69G A70G
# output midrange
